# targetUnderTest: PRMT1 (Homo sapiens, UniProt Q99873)
# Construct: made in house
# Sequence (Q99873 whole entry, species assumed): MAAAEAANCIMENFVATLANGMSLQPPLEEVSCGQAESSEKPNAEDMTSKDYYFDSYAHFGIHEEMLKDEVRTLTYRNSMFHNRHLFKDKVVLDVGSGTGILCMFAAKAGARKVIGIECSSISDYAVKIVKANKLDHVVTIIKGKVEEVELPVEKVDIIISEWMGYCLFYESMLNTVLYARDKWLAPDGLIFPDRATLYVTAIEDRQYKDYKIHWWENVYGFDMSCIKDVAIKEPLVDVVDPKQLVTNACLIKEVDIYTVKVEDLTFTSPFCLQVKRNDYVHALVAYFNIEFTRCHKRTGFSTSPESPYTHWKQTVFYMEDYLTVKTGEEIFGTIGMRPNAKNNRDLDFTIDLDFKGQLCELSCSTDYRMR
# assayNotes: SAHH-coupled fluorescence assay, inhibition of PRMT1
# Type: biochemical
# cond: read-out: IC50[μM] | PRMT1
assayMetric: IC50 (µM)

Some molecules with known IC50 results, for comparison:
Entry under test: N=C(NCCCSC[C@H]1O[C@@H](n2cnc3c(N)ncnc32)[C@H](O)[C@@H]1O)Nc1cccc(-c2ccc(F)nc2)c1 . Its IC50 was 0.35

Entry under test: N=C(NCCCSC[C@H]1O[C@@H](n2cnc3c(N)ncnc32)[C@H](O)[C@@H]1O)Nc1cccc(-c2cccnc2)c1 . Its IC50 was 0.9

(1) N=C(NCCCSC[C@H]1O[C@@H](n2cnc3c(N)ncnc32)[C@H](O)[C@@H]1O)Nc1cccc(-c2ccc(Cl)cc2)c1
(2) N=C(NCCSC[C@H]1O[C@@H](n2cnc3c(N)ncnc32)[C@H](O)[C@@H]1O)Nc1cccc(-c2ccoc2)c1
Among 1 and 2 , whose measured IC50 is the smaller figure? Your answer should be the label attached to the chosen record. 1

====

# targetUnderTest: PRMT8 (Homo sapiens, UniProt Q9NR22)
# Sequence (Q9NR22 whole entry, species assumed): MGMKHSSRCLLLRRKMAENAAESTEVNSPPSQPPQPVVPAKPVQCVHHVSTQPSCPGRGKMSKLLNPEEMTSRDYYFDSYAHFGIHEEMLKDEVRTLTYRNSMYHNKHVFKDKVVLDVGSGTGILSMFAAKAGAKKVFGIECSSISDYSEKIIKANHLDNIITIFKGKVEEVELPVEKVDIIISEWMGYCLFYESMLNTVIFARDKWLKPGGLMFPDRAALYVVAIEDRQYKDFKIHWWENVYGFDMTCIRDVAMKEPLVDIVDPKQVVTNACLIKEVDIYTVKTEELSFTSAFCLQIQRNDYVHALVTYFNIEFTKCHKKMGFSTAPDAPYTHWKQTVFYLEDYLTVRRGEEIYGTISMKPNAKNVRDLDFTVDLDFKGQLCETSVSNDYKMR
# assayNotes: radioactive assay (Reaction Biology Corp.), inhibition of PRMT8
# Format: biochemical
# Procedure: Next, the inhibition activity of the library was investigated for five PRMT members from type I PRMTs. The PRMT 4, 6 and 8 methylation assays were performed by Reaction Biology corp.
assayMetric: inhibition at 10 µM (%)

Some compounds with known inhibition at 10 µM results, for comparison:
Entry under test: N=C(NCCCO)NCCCSC[C@H]1O[C@@H](n2cnc3c(NCCCc4ccccc4)ncnc32)[C@H](O)[C@@H]1O . Its inhibition at 10 µM was 55

Entry under test: N=C(NCCSC[C@H]1O[C@@H](n2cnc3c(N)ncnc32)[C@H](O)[C@@H]1O)Nc1ccccc1 . Its inhibition at 10 µM was 66

Entry under test: Nc1ncnc2c1ncn2[C@@H]1O[C@H](CSCCCNCc2cccc(-c3ccoc3)c2)[C@@H](O)[C@H]1O [Compound 10p] . Its inhibition at 10 µM was 54

Entry under test: N=C(NCCSC[C@H]1O[C@@H](n2cnc3c(N)ncnc32)[C@H](O)[C@@H]1O)Nc1cccc(-c2ccc(C(F)(F)F)cc2)c1 . Its inhibition at 10 µM was 94

Entry under test: N=C(NCCCSC[C@H]1O[C@@H](n2cnc3c(NCCCc4ccccc4)ncnc32)[C@H](O)[C@@H]1O)NCC1CCC1 . Its inhibition at 10 µM was 85

(A) Nc1ncnc2c1ncn2[C@@H]1O[C@H](CSCCNCc2cccc(-c3cccc(O)c3)c2)[C@@H](O)[C@H]1O [Compound 10i]
(B) Nc1cccc(-c2ccc(CNC(=O)NCCSC[C@H]3O[C@@H](n4cnc5c(N)ncnc54)[C@H](O)[C@@H]3O)cc2)c1
Among A and B , whose measured inhibition at 10 µM is the smaller figure? Your answer should be the label attached to the chosen record. B
(B: 0%, A: 74%)

====

# targetUnderTest: PRMT6 (Homo sapiens, UniProt Q96LA8)
# Sequence (Q96LA8 whole entry, species assumed): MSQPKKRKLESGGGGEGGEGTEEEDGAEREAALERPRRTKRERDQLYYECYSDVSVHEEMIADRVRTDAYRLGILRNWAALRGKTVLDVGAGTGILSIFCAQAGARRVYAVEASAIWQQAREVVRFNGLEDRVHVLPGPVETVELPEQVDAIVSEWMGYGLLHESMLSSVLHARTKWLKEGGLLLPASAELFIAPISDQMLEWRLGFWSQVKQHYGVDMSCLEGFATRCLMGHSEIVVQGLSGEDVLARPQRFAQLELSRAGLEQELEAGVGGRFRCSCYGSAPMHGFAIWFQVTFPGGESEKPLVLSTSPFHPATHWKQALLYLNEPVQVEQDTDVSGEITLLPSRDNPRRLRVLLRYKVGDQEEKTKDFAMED
# assayNotes: radioactive assay (Reaction Biology Corp.), inhibition of PRMT6
# Format: biochemical
assayMetric: inhibition at 10 µM (%)

Entry under test: N=C(NCCCSC[C@H]1O[C@@H](n2cnc3c(NCCCc4ccccc4)ncnc32)[C@H](O)[C@@H]1O)NCC1CC1 [Compound 19f] . Its inhibition at 10 µM was 88

Entry under test: N=C(NCCCSC[C@H]1O[C@@H](n2cnc3c(N)ncnc32)[C@H](O)[C@@H]1O)Nc1cccc(-c2ccc(Cl)cc2)c1 . Its inhibition at 10 µM was 97

Entry under test: N=C(NCCCSC[C@H]1O[C@@H](n2cnc3c(N)ncnc32)[C@H](O)[C@@H]1O)Nc1cccc(-c2cncnc2)c1 . Its inhibition at 10 µM was 96

Entry under test: N=C(NCCCO)NCCCSC[C@H]1O[C@@H](n2cnc3c(NCCCc4ccccc4)ncnc32)[C@H](O)[C@@H]1O . Its inhibition at 10 µM was 84

Entry under test: N=C(NCCCSC[C@H]1O[C@@H](n2cnc3c(N)ncnc32)[C@H](O)[C@@H]1O)Nc1ccccc1 . Its inhibition at 10 µM was 99

Entry under test: N=C(NCCCN)NCCCSC[C@H]1O[C@@H](n2cnc3c(NCCCc4ccccc4)ncnc32)[C@H](O)[C@@H]1O [Compound 19i] . Its inhibition at 10 µM was 79

Entry under test: N=C(NCCCSC[C@H]1O[C@@H](n2cnc3c(N)ncnc32)[C@H](O)[C@@H]1O)Nc1cccc(-c2ccc(F)nc2)c1 . Its inhibition at 10 µM was 99

====

# targetUnderTest: PRMT1 (Homo sapiens, UniProt Q99873)
# Construct: made in house
# assayNotes: SAHH-coupled fluorescence assay, inhibition of PRMT1
# Assay type: biochemical
assayMetric: inhibition at 10 µM (%)

So the reported inhibition at 10 µM for N=C(NCCCSC[C@H]1O[C@@H](n2cnc3c(N)ncnc32)[C@H](O)[C@@H]1O)Nc1cccc(-c2ccc(C(F)(F)F)cc2)c1 , on PRMT1 (Homo sapiens, UniProt Q99873), turned out to be 88

So the reported inhibition at 10 µM for N=C(NCCCSC[C@H]1O[C@@H](n2cnc3c(N)ncnc32)[C@H](O)[C@@H]1O)Nc1cccc(-c2ccc(F)cc2F)c1 , on PRMT1 (Homo sapiens, UniProt Q99873), turned out to be 97

So the reported inhibition at 10 µM for Nc1ncnc2c1ncn2[C@@H]1O[C@H](CSCCNC(=O)NCc2ccccc2)[C@@H](O)[C@H]1O , on PRMT1 (Homo sapiens, UniProt Q99873), turned out to be 30

(A) Nc1ncnc2c1ncn2[C@@H]1O[C@H](CSCCCNC(=O)NCc2ccccc2)[C@@H](O)[C@H]1O
(B) COc1cc2nc(-c3cccc(F)c3)nc(NCCSC[C@H]3O[C@@H](n4cnc5c(N)ncnc54)[C@H](O)[C@@H]3O)c2cc1OC [Compound 12c]
(C) Nc1ncnc2c1ncn2[C@@H]1O[C@H](CSCCCNCc2cccc(-c3cncnc3)c2)[C@@H](O)[C@H]1O [Compound 10s]
Reorder: inhibition at 10 µM, max to min. A complete answer lists every label in the requested sequence. C, B, A

(P) COc1cc2nc(-c3ccc(F)c(O)c3)nc(NCCSC[C@H]3O[C@@H](n4cnc5c(N)ncnc54)[C@H](O)[C@@H]3O)c2cc1OC [Compound 12f]
(Q) N=C(NCCCO)NCCCSC[C@H]1O[C@@H](n2cnc3c(NCCCc4ccccc4)ncnc32)[C@H](O)[C@@H]1O
(R) Nc1ncnc2c1ncn2[C@@H]1O[C@H](CSCCNC(=O)NCc2ccc(-c3ccc(O)cc3)cc2)[C@@H](O)[C@H]1O
(S) Nc1ncnc2c1ncn2[C@@H]1O[C@H](CSCCNC(=O)NCCc2ccccc2)[C@@H](O)[C@H]1O
Sort ascending by inhibition at 10 µM. A complete answer lists every label in the requested sequence. S, P, R, Q

(I) Nc1ncnc2c1ncn2[C@@H]1O[C@H](CSCCNC(=O)NCc2ccccc2Br)[C@@H](O)[C@H]1O
(II) Nc1ncnc2c1ncn2[C@@H]1O[C@H](CSCCCNCc2cccc(-c3ccc(O)cc3)c2)[C@@H](O)[C@H]1O [Compound 10n]
Among I and II , whose measured inhibition at 10 µM is the smaller figure? Your answer should be the label attached to the chosen record. I

(a) Nc1ncnc2c1ncn2[C@@H]1O[C@H](CSCCNC(=O)Nc2ccccc2Br)[C@@H](O)[C@H]1O
(b) CCCCNC(=N)NCCCSC[C@H]1O[C@@H](n2cnc3c(NCCCc4ccccc4)ncnc32)[C@H](O)[C@@H]1O [Compound 19a]
(c) Nc1ncnc2c1ncn2[C@@H]1O[C@H](CSCCNCc2cccc(-c3ccccc3O)c2)[C@@H](O)[C@H]1O [Compound 10j]
(d) Nc1ncnc2c1ncn2[C@@H]1O[C@H](CSCCNCc2cccc(-c3ccc(Cl)cc3)c2)[C@@H](O)[C@H]1O [Compound 10a]
Reorder: inhibition at 10 µM, max to min. A complete answer lists every label in the requested sequence. b, c, d, a

====

# targetUnderTest: PRMT3 (Homo sapiens, UniProt O60678)
# Sequence (O60678 211-531): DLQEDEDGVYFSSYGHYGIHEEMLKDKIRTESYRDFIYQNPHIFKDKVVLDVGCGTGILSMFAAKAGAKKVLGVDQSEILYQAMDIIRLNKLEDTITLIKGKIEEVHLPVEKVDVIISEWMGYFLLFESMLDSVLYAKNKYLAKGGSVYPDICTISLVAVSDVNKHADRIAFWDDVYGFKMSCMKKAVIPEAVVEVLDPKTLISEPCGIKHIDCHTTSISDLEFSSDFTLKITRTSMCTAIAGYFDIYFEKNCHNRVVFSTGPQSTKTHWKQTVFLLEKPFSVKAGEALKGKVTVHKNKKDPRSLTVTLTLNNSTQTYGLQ
# assayNotes: SAHH-coupled fluorescence assay, inhibition of PRMT3
# Format: biochemical
# Design: PRMT3 (residues 211-531) was cloned into the pET28a-MHL expression vector; tag of the pET28a-MHL vector (not described); made in house; host or cells: Escherichia coli BL21(DE3)
# Method: A fluorescence-based SAHH-coupled assay was applied to study the inhibition activity of all synthesized compounds on PRMT 1 and 3. The PRMT3 methylation assay was performed under the following conditions in a final well volume of 100 μL: 20 mM Tris (pH=7.5), 0.01% Triton X-100, 5 μM SAHH, 0.25 μM PRMT3, 30 μM AdoMet, and 15 μM ThioGlo4. […] Fluorescence was monitored on a BMG CLARIOstar microplate reader with excitation 380 nm and emission 505 nm. […]
assayMetric: inhibition at 10 µM (%)

Entry under test: Nc1ncnc2c1ncn2[C@@H]1O[C@H](CSCCCNCc2cccc(-c3cccc(F)c3)c2)[C@@H](O)[C@H]1O [Compound 10q] . Its inhibition at 10 µM was 25

(A) COc1cc2nc(-c3ccc(N)cc3)nc(NCCSC[C@H]3O[C@@H](n4cnc5c(N)ncnc54)[C@H](O)[C@@H]3O)c2cc1OC [Compound 12j]
(B) N=C(NCCCSC[C@H]1O[C@@H](n2cnc3c(NCCCc4ccccc4)ncnc32)[C@H](O)[C@@H]1O)NC1CCCC1 [Compound 19d]
(C) Nc1ncnc2c1ncn2[C@@H]1O[C@H](CSCCCNC(=O)NCCCc2ccccc2)[C@@H](O)[C@H]1O [Compound 7q]
Sort ascending by inhibition at 10 µM. A complete answer lists every label in the requested sequence. C, B, A
(C: 5%, B: 8%, A: 13%)
